Tested on: rabbit vWF A1 domain (SEQ ID NO 6)
Sequence (as listed by the source): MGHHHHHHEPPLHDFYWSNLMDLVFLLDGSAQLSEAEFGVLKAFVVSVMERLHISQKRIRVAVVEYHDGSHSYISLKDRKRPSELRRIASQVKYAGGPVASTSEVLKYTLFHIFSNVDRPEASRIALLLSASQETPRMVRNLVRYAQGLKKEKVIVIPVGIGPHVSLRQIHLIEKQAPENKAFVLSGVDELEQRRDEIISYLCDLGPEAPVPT
Experiment: 3-point dot blot screen, rabbit vWF A1 domain
Assay type: binding
Conditions: rRdY aptamers; 100 nM rabbit vWF A1 domain; ratio of fraction bound with target to without
Oligonucleotides are written 5' to 3', each unit as a sugar letter and its base; * is a phosphorothioate linkage, no mark a phosphodiester; rarer units and linkages stand in square brackets, end groups in braces. Plain capitals give the bases only. d = 2'-deoxy (DNA); r = 2'-OH (RNA)
For each entry below, report its Screen- Rabbit/No Protein value.

stdin: Any idea what its Screen- Rabbit/No Protein is? The molecule is AMX205.H11: rRdY aptamer clone (nucleic acid) rGrGrArGdCrGdCrAdCdTdCrArGdCdCrAdCrGrGdCrAdCrGrAdCrGrGdTrGrAdTrGrGrAdTdTrArGdCrGdCrGrGdTrGdTdCrGrGdTrGrGdTrGdTdCrAdTdTdTdCrGrAdCdCdTdCdTdCdTrGdCdTrArGdC
stdout: 2.41

stdin: Any idea what its Screen- Rabbit/No Protein is? The molecule is AMX203.G9: rRdY aptamer clone (nucleic acid) rGrGrArGdCrGdCrAdCdTdCrArGdCdCrAdCrGrGrGrGdTrGrGrGdTrArGrAdCrGrGdCrGrGrGdTrAdTrGdTrGrGdCdTrGrGdTrGdTdCrGrArArGrGrGdTdTdTdCrGrAdCdCdTdCdTdCdTrGdCdTrArGdC
stdout: 1.35

stdin: Any idea what its Screen- Rabbit/No Protein is? The molecule is AMX206.D7: rRdY aptamer clone (nucleic acid) rGrGrArGdCrGdCrAdCdTdCrArGdCdCrAdCrGrGdCrAdCrGrAdCrGrGdTrGrAdTrGrArAdTdTrArGdCrGdCrGrGdTrGdTdCrGrGdTrGrGdTrGdTdTrAdTdTdTdCrGrAdCdCdTdCdTdCdTrGdCdTrArGdC
stdout: 2.08

stdin: Any idea what its Screen- Rabbit/No Protein is? The molecule is AMX203.A1: rRdY aptamer clone (nucleic acid) rGrGrArGdCrGdCrAdCdTdCrArGdCdCrAdCrArGdTdTdCdTrGdTdCrGrGdTrGrAdTrGrArAdTdTrArGdCrGdCrGrGrGrArGdCdTrGdTrGrGrGrAdCrGdTdTdTdCrGrAdCdCdTdCdTdCdTrGdCdTrArGdC
stdout: 2.67

stdin: Any idea what its Screen- Rabbit/No Protein is? The molecule is AMX206.H9: rRdY aptamer clone (nucleic acid) rGrGrArGdCrGdCrAdCdTdCrArGdCdCrAdCrGrGrArGdCrGdTdCrGrGdTrGrAdTrGrGrAdTdTrArGdCrGdCrGrGdTdTdCdCrGdTrGrGdTrAdCrAdCdCdTdTdTdCrGrAdCdCdTdCdTdCdTrGdCdTrArGdC
stdout: 2.31
